Where do the numbers come from? From ChEMBL document CHEMBL2203173.

system: DMS-53; test: Antiproliferative activity at human DMS53 cells after 72 hrs by MTT assay; format: functional, cell-based; settings: Homo sapiens, DMS-53, 72 h
Rule: IC50 below 1000 nM gives yes. Equal to or above 1000 nM gives no.

Study these solved cases before continuing.
{"columns": ["molecule", "assay.system", "label.value"],
 "data": [
  ["CCN(C)C(=S)NN=C(c1ccccn1)c1ccccn1.Cl", "DMS-53", "yes"],
  ["CN(C)C(=S)NN=C(c1ccccn1)c1ccccn1", "DMS-53", "yes"],
  ["COc1cc([C@@H]2c3cc4c(cc3[C@@H](O[C@@H]3O[C@@H]5CO[C@@H](C)O[C@H]5[C@H](O)[C@H]3O)[C@H]3COC(=O)[C@H]23)OCO4)cc(OC)c1O [ETOPOSIDE]", "DMS-53", "no"],
  ["Nc1ccn([C@@H]2O[C@H](CO)[C@@H](O)C2(F)F)c(=O)n1", "DMS-53", "yes"],
  ["O=C(N/N=C/c1c(O)ccc2ccccc12)c1ccncc1", "DMS-53", "no"],
  ["CN(C(=S)NN=C(c1ccccn1)c1ccccn1)C1CCCCC1.Cl", "DMS-53", "yes"]
]}

A record lists CC(=O)N(O)CCCCCNC(=O)CCC(=O)N(O)CCCCCNC(=O)CCC(=O)N(O)CCCCCN . Is its IC50 below 1000 nM?
no
